Test system: S-180J cells (sarcoma 180J)
Assay: Sarcoma 180J model for assessment of tumor rejection
Type: in vivo, female CD-1 mice
Conditions: 1 mg/kg, fat emulsion vehicle Intralipid
Counter-ions that a name gives are not always drawn.
Listed next: entries and their corresponding %ILS (increased percent life span).
The figure you give is taken to be in %; do not add the unit.

Study these solved cases before continuing.
[
  {
    "molecule": "CCCCCCCCCCCCCCCCOCC(CN1CCC(CN)(c2ccccc2)CC1)OCCCCCCCCCCCCCCCC (centres unmarked) [n-C16 H33, Dihydrochloride]",
    "%ILS (increased percent life span) / %": 105
  },
  {
    "molecule": "CCCCCCCCCCOCC(CN1CCC(CN)(c2ccccc2)CC1)OCCCCCCCCCC (centres unmarked)",
    "%ILS (increased percent life span) / %": 139
  },
  {
    "molecule": "CCCCCCCCCCCCCCCCCCOCC(CN1CCC(CN)(c2ccccc2)CC1)OCCCCCCCCCCCCCCCCCC (centres unmarked)",
    "%ILS (increased percent life span) / %": 158
  },
  {
    "molecule": "CCCCCCCCCCCCCCOCC(CN1CCC(CN)(c2ccccc2)CC1)OCCCCCCCCCCCCCC (centres unmarked)",
    "%ILS (increased percent life span) / %": 116
  }
]

Now consider the entry below.
Ask: Specify measured %ILS (increased percent life span) for CCCCCCCCOCC(CN1CCC(CN)(c2ccccc2)CC1)OCCCCCCCC (centres unmarked) .
Result: 109

---

Assay: in vivo
Set-up: species or system mice and rats
Details: sterile fat or lipid emulsion vehicle, parenteral and intravenous, read-out: therapeutic index
measured_parameter: selectivity ratio

Ask: Retrieve selectivity ratio measured for CCCCCCCCOCC(CN1CCC(CN)(c2ccccc2)CC1)OCCCCCCCC (stereo not shown) and print it.
Result: 15 to 25

Values from patent US4173641A
